# measurement-target: Tyrosine-protein phosphatase non-receptor type 1 (Homo sapiens) (UniProt P18031)
# Sequence (whole entry): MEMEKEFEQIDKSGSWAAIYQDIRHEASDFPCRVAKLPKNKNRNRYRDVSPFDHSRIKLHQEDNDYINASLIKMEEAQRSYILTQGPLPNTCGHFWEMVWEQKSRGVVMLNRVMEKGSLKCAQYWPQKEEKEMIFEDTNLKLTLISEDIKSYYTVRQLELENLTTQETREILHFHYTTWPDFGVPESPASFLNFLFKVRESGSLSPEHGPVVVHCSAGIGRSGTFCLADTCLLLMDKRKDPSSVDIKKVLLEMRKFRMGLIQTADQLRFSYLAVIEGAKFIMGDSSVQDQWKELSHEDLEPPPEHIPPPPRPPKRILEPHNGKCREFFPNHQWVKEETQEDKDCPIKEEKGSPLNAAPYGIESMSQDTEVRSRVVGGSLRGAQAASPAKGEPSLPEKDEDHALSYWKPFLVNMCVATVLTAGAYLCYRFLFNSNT
# assay-text: Competitive inhibition of recombinant human PTP1B (1 to 322 residues) expressed in Escherichia coli using P-NPP as substrate after 10 mins by Lineweaver-Burk plot analysis
Activity calls are given as the source filed them. The calls are words filed in the database; no cut-off is given here.
experimental-endpoint: inhibition type (Lineweaver-Burk)

Value of inhibition type (Lineweaver-Burk) reported for the compound C=C(C)C(O)Cc1c(O)c(C/C=C(\C)CCC=C(C)C)c2oc3ccc(O)cc3c(=O)c2c1O (stereo not drawn) is Active

Value of inhibition type (Lineweaver-Burk) reported for the compound CC(C)=CCCC(C)(O)C1Cc2c(c(CC=C(C)C)c(O)c3c(=O)c4cc(O)ccc4oc23)O1 (stereo not drawn) is Active

Value of inhibition type (Lineweaver-Burk) reported for the compound CC(C)=CCC/C(C)=C/Cc1c(O)c(CC=C(C)C)c(O)c2c(=O)c3cc(O)ccc3oc12 is Active

###

# measurement-target: Tyrosine-protein phosphatase non-receptor type 1 (Homo sapiens, UniProt P18031)
# assay-text: Inhibition of recombinant human PTP1B (1 to 322 residues) expressed in Escherichia coli using P-NPP as substrate after 10 mins by Dixon plot analysis
Please go through the items and note down their pKi.
Would you please state pKi, meaning minus log10 of the concentration in mol/L, as a bare number?

Field pKi (Tyrosine-protein phosphatase non-receptor type 1 (Homo sapiens, UniProt P18031)), entry CC(C)=CCC/C(C)=C/COc1ccc2oc3cc(O)cc(O)c3c(=O)c2c1 : 4.70

Field pKi (Tyrosine-protein phosphatase non-receptor type 1 (Homo sapiens, UniProt P18031)), entry C=C(C)C(O)CC/C(C)=C/COc1ccc2oc3cc(O)cc(O)c3c(=O)c2c1 (stereo not drawn) : 4.53

###

# measurement-target: UniProtKB P18031
# Sequence (P18031 whole entry): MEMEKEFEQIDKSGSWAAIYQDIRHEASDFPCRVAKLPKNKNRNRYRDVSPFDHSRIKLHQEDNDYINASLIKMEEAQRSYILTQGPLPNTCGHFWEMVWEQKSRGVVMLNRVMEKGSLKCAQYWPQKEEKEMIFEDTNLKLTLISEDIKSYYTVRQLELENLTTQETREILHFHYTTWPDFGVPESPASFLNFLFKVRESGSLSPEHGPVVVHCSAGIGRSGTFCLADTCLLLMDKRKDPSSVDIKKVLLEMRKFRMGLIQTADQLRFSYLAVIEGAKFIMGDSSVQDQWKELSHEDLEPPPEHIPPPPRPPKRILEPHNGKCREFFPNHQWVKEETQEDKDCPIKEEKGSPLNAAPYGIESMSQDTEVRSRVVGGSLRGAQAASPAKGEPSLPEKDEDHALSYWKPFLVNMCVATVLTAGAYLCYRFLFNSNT
# assay-text: Inhibition of recombinant human PTP1B (1 to 322 residues) expressed in Escherichia coli using P-NPP as substrate after 10 mins by spectrophotometry
Could you please mark Met for values of IC50 below 7 µM and Not met for values at or above it?

Problem: Given C=C(C)C(O)Cc1c(O)c(C/C=C(\C)CCC=C(C)C)c2oc3ccc(O)cc3c(=O)c2c1O (configuration not stated) , is recorded IC50 strictly lower than 7 µM?
Result: Met

Problem: Given COc1c(O)ccc2c(=O)c3c(O)cc4c(c3oc12)C(C)(C)C(CO)O4 (configuration not stated) , is recorded IC50 strictly lower than 7 µM?
Result: Not met

Problem: Given C=C(C)C(O)CC/C(C)=C/COc1ccc2oc3cc(O)cc(O)c3c(=O)c2c1 (configuration not stated) , is recorded IC50 strictly lower than 7 µM?
Result: Not met

Problem: Given COc1c(O)cc2oc3cc(O)c(CCC(C)(C)O)c(O)c3c(=O)c2c1CC=C(C)C , is recorded IC50 strictly lower than 7 µM?
Result: Not met

Problem: Given C=C(CCC=C(C)C)C(O)Cc1c(O)c(CC=C(C)C)c(O)c2c(=O)c3cc(O)ccc3oc12 (configuration not stated) , is recorded IC50 strictly lower than 7 µM?
Result: Not met

Problem: Given CC(C)=CCc1c(O)cc2oc3cc(O)c(O)c(CC=C(C)C)c3c(=O)c2c1O , is recorded IC50 strictly lower than 7 µM?
Result: Met

Problem: Given CC(C)=CCc1c(O)c(CC=C(C)C)c2oc3ccc(O)cc3c(=O)c2c1O , is recorded IC50 strictly lower than 7 µM?
Result: Not met

Problem: Given CC(C)=CCC/C(C)=C/Cc1c(O)c(CC=C(C)C)c(O)c2c(=O)c3cc(O)ccc3oc12 [COCHINCHINONE A] , is recorded IC50 strictly lower than 7 µM?
Result: Met

Problem: Given CC(C)=CCC/C(C)=C/COc1ccc2oc3cc(O)cc(O)c3c(=O)c2c1 , is recorded IC50 strictly lower than 7 µM?
Result: Not met

Problem: Given COc1c(O)cc2oc3cc(O)c(CC=C(C)C)c(O)c3c(=O)c2c1CC=C(C)C [MANGOSTIN] , is recorded IC50 strictly lower than 7 µM?
Result: Met

###

# measurement-target: Alpha glucosidase (Homo sapiens, UniProt O43451+P10253+P14410+Q2M2H8)
# assay-text: Inhibition of alpha-glucosidase (unknown origin) using PNP-G as substrate measured for 15 mins by spectrophotometry
# Format: protein assay
Please go through the items and note down their IC50.
Respond numerically; units are µM and should not be typed.

Value of IC50 reported for the compound CC(C)=CCC/C(C)=C/COc1ccc2oc3cc(O)cc(O)c3c(=O)c2c1 is 20.6

Value of IC50 reported for the compound C=C(C)C(O)CC/C(C)=C/COc1ccc2oc3cc(O)cc(O)c3c(=O)c2c1 (configuration not stated) is 13.7

Value of IC50 reported for the compound COc1c(O)cc2oc3cc(O)c(CC=C(C)C)c(O)c3c(=O)c2c1CC=C(C)C is 5.7

Value of IC50 reported for the compound C=C(C)C(O)Cc1c(O)c(C/C=C(\C)CCC=C(C)C)c2oc3ccc(O)cc3c(=O)c2c1O (configuration not stated) is 4.8

Value of IC50 reported for the compound CC(C)=CCC/C(C)=C/COc1cc2oc3ccc(O)cc3c(=O)c2c(O)c1CC=C(C)C is 28.4

Value of IC50 reported for the compound CC(C)=CCc1c(O)cc2oc3cc(O)c(O)c(CC=C(C)C)c3c(=O)c2c1O is 1.7

Value of IC50 reported for the compound CC(C)=CCC/C(C)=C/Cc1c(O)c(CC=C(C)C)c(O)c2c(=O)c3cc(O)ccc3oc12 is 17.4

Value of IC50 reported for the compound CC(C)=CCc1c(O)c(CC=C(C)C)c2oc3ccc(O)cc3c(=O)c2c1O is 25.5

Value of IC50 reported for the compound COc1c(O)ccc2c(=O)c3c(O)cc4c(c3oc12)C(C)(C)C(CO)O4 (configuration not stated) is 72.7

Value of IC50 reported for the compound COc1c(O)cc2oc3cc(O)c(CCC(C)(C)O)c(O)c3c(=O)c2c1CC=C(C)C is 30.7

Value of IC50 reported for the compound C=C(CCC=C(C)C)C(O)Cc1c(O)c(CC=C(C)C)c(O)c2c(=O)c3cc(O)ccc3oc12 (configuration not stated) is 10.1

Value of IC50 reported for the compound CC(C)=CCCC(C)(O)C1Cc2c(c(CC=C(C)C)c(O)c3c(=O)c4cc(O)ccc4oc23)O1 (configuration not stated) is 16.1

###

# measurement-target: Tyrosine-protein phosphatase non-receptor type 1 (Homo sapiens, UniProt P18031)
# assay-text: Time dependent inhibition of recombinant human PTP1B (1 to 322 residues) expressed in Escherichia coli using P-NPP as substrate preincubated with enzyme for 30 mins by UV-spectrophotometric method
# study-conditions: read-out: Ki(app)
experimental-endpoint: pKi
Would you please state pKi, meaning minus log10 of the concentration in mol/L, as a bare number?

Value of pKi reported for the molecule C=C(C)C(O)Cc1c(O)c(C/C=C(\C)CCC=C(C)C)c2oc3ccc(O)cc3c(=O)c2c1O (stereo unspecified) is 5.62
